The values you see were collected from PubChem BioAssay (NCI).

Experiment: NCI Yeast Anticancer Drug Screen. Data for the sgs1 mgt1 strain (AID 161);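 also: 0% = growth of cultures given vehicle only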
Settings: S. cerevisiae sgs1 mgt1 strain, at 50.0 µM, stronger effect = higher value
Protocol: Growth inhibition of yeast strains with defined genetic alterations is measured as a screen for potential anti-cancer activity. Selected strains with alterations in DNA damage repair or cell cycle control were exposed to compounds and growth inhibition was measured relative to vehicle treated controls. The strain used in this assay is sgs1 mgt1
About 79,000 compounds went through this panel and 15% of them were active in at least one assay; those are over-represented in the sample as a whole.
The following molecules are shown together with reported growth inhibition values.
Unit % implied. Number only.

The cases that follow already have their growth inhibition on record.
MOLECULE: CCOC(=O)C(NNc1ccccc1)C(=O)C(F)(F)F (stereo unspecified)
EXPERIMENTAL VALUE: -9.3
--
MOLECULE: COc1cc(C2C(C(=O)NCc3ccccc3)=C(C)NC(C)=C2C(=O)NCc2ccccc2)ccc1O
EXPERIMENTAL VALUE: -23.9
--
MOLECULE: COC(=O)N1C(C#N)=CCc2ccccc21
EXPERIMENTAL VALUE: 16.9

Measured growth inhibition of Cc1ccsc1C(=O)c1ccccc1[N+](=O)[O-] : -6.7

Record O=C(Cc1ccccc1)Nc1ccc([N+](=O)[O-])cc1Cl , field growth inhibition: 23.4

The reported growth inhibition of the molecule COC(=O)NCP(=O)(CNC(=O)OC)CNC(=O)OC was -1.35

For record CCCCCc1c2nc(c(CCCCC)c3ccc([nH]3)c(CCCCC)c3ccc([nH]3)c(CCCCC)c3nc1C=C3)C=C2 the listed growth inhibition is -10.3

Quick note, growth inhibition for CC1(C)S/C(=C\c2ccccc2)c2nc3ccccc3c(=O)n21 landed at -16.1

Summary for this molecule, Cc1ccc2c(c1)[n+]([O-])c1c3ccccc3[nH]c1[n+]2[O-] : growth inhibition is 22.9

GET /value?item= CCN(CC)c1ccc2cc(C(=O)Nc3cccc4ccccc34)c(=N)oc2c1 &field=growth inhibition returns -10.2

GET /value?item= C[n+]1c(/C=C\c2ccc(O)cc2)cc(C(N)=O)c2ccccc21 &field=growth inhibition returns 17.1

###

Experiment: NCI Yeast Anticancer Drug Screen. Data for the bub3 strain (AID 167)
Conditions: S. cerevisiae bub3 mutant strain, at 50.0 µM, stronger effect = higher value
Method: Growth inhibition of yeast strains with defined genetic alterations is measured as a screen for potential anti-cancer activity. Selected strains with alterations in DNA damage repair or cell cycle control were exposed to compounds and growth inhibition was measured relative to vehicle treated controls. The strain used in this assay is bub3
About 79,000 compounds went through this panel and 15% of them were active in at least one assay; those are over-represented in the sample as a whole. Active and inactive are the calls of the source. No stated cut-off is given here; in the data, active means growth inhibition above about 70%; inactive means the rest.
TEST READOUT: growth inhibition

Below, 3 molecules whose answers are already recorded.
MOLECULE: CCN(CC)CCC(=O)c1cnc(-c2ccccc2)nc1C
growth inhibition: 17.5% (inactive)
//
MOLECULE: O=C1C2C3C=CC(CC3)C2C(=O)C2C3C=CC(C3)C12 (stereo not given)
growth inhibition: -1.45% (inactive)
//
MOLECULE: O=C(NC(Cc1ccccc1)C(=O)O)c1ccccc1 (stereo not given)
growth inhibition: 6.7% (inactive)

Noted for N#CCc1ccc(-c2ccccc2)cc1 : its growth inhibition reads -19.6% (inactive)

C[n+]1cccc(C(=O)c2ccccc2)c1 yielded growth inhibition of -0.55% (inactive)

growth inhibition reported for this molecule Cc1cc(=O)n(-c2ccc([N+](=O)[O-])cc2)c(C)c1C(=O)O : 7.9% (inactive)

Notebook: CCC1CCN(CC)CC1 , growth inhibition read as -19.6% (inactive)

growth inhibition reading for O=C1CCCCCCCC(=O)Nc2ccc3nc4ccccc4c(c3c2)SCCCCCCCCCSc2c3ccccc3nc3ccc(cc23)N1 : -6.5% (inactive)
